Kindly supply the reported remaining enzyme activity (% of control) values for the records listed here.
Molecular target: MMP-9 (Homo sapiens, UniProt P14780)
Construct: purchased Sino Biological 10327-HNAH
Sequence (P14780 107-707 limits assumed): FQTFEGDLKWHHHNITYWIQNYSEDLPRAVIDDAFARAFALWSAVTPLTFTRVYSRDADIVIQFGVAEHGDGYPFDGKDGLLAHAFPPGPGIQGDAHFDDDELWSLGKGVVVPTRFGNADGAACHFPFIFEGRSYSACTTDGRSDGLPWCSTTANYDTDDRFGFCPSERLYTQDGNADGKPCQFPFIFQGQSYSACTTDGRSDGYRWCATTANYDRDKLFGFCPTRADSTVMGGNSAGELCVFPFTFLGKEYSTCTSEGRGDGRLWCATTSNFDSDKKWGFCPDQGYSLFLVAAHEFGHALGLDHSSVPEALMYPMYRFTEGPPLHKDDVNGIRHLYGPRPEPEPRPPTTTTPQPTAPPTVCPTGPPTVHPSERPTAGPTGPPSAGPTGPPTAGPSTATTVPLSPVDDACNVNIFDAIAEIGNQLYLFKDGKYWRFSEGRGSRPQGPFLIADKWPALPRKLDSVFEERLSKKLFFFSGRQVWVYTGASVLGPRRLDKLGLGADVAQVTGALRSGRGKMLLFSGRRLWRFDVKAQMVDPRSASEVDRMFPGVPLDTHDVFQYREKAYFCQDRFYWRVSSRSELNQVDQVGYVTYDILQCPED
Assay: MMP-9 inhibition assay (fluorogenic peptide substrate)
Assay type: biochemical
Set-up: scale not given here
Details: MMP-9; concentration 125.00 µM
Enter a number only.

State the recorded remaining enzyme activity (% of control) for this entry: Cc1cc(=O)[nH]c(-n2nc(C)c(CCC(=O)NCCNC(=O)CC(=O)C=CCCCCNC(=O)c3cnc4c(c3)nc(O)n4C)c2C)n1 [693+826 Linker 12] 27.22

Report remaining enzyme activity (% of control) for Cn1c(O)nc2cc(C(=O)NCC34CC5CC(CC(C5)C3)C4)cnc21 [66+826 Linker 1] please. 59.34

So what does the record say about remaining enzyme activity (% of control) for Cc1cc(=O)[nH]c(-n2nc(C)c(CCC(=O)NCCNC(=O)c3cnc4c(c3)nc(O)n4C)c2C)n1 [693+826 Linker 1] ? 76.07

Origin of values: paper PMC10023787
